target: UniProt:P27487; test: DPP-IV inhibitory assay; assay type: biochemical
Sequence (P27487 whole entry): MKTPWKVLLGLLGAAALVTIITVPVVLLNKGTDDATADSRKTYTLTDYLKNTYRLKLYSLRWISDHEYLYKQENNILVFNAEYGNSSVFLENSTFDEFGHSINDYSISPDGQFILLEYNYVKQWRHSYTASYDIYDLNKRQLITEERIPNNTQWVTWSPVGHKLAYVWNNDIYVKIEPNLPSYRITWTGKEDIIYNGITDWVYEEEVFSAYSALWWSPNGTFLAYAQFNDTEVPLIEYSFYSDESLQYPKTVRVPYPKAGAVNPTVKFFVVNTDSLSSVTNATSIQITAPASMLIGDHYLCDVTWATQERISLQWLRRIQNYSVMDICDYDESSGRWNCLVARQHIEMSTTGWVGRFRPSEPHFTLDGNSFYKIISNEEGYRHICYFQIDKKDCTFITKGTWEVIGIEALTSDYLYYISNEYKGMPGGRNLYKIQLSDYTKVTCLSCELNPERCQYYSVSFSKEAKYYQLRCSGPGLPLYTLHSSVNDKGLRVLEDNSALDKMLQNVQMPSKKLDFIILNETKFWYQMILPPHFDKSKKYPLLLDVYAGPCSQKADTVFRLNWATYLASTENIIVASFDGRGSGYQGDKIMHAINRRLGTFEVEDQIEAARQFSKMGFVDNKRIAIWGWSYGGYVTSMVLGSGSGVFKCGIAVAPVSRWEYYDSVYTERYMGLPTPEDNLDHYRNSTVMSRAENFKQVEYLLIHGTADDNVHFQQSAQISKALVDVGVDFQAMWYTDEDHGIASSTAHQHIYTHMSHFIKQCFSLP
Peptide text beside a SMILES is read from it.
Assay Endpoint: IC50 (µM)
Numbers only, in µM.

Take a look at these entries with their results.
> print(dat)
                                   compound  assay.endpoint  meas.value
1  CC(C)[C@H](NC(=O)[C@@H](N)Cc1c[nH]c2ccccc12)C(=O)N[C@@H](Cc1c[nH]c2ccccc12)C(=O)O [WVW] (H-Trp-Val-Trp-OH)            IC50         239
2  C[C@H](NC(=O)[C@@H](N)Cc1c[nH]c2ccccc12)C(=O)N[C@@H](CCC(N)=O)C(=O)O [WAQ] (H-Trp-Ala-Gln-OH)            IC50         289

Let's switch to this compound now.
**Q:** May I ask what IC50 has been recorded for C[C@H](NC(=O)[C@@H]1CCCN1C(=O)[C@@H](N)Cc1c[nH]c2ccccc12)C(=O)O [WPA] (H-Trp-Pro-Ala-OH) ?
**A:** 206
